- Target Under Test: DNMT3A catalytic domain (mouse)
- Assay Info: relative CpG methylation activity (normalised to average over all NNNCGNNN flanks) (relative (1 = mean)); higher = more methylation of the central CpG
- Test Context: system: in vitro, murine catalytic domain; CpG state: hemimethylated substrate pool; residues: 608-908
In all, about 4,100 sequences were measured (“relative CpG methylation activity (normalised to average over all NNNCGNNN flanks)”: median about 0.87, highest 2% from about 2.4 on). The list comes from a sample in which the highest values are over-represented; it also holds close analogues and randomly drawn sequences.
Listing of recorded relative CpG methylation activity by entry.
Outcome Measure: relative CpG methylation activity

> print(dat)
    seq.string  data.value
 1    ACCCGGTC        1.19
 2    CTCCGCTC        2.19
 3    TTCCGTGG       0.603
 4    TCTCGCTG        1.57
 5    CGACGTTG       0.323
 6    GACCGTCG        1.29
 7    CCGCGTGG       0.205
 8    CGCCGGTA       0.746
 9    TAACGCCC        1.61
10    GTACGCAA        1.89
11    TTACGCCG        2.29
12    AGACGCCC        1.43
13    TTACGCCC        2.64
14    TTACGCAT        2.29
15    TCTCGGTG       0.645
16    GCACGACG       0.957
17    TTCCGCTA         2.3
18    TTACGCAA        2.55
19    GGTCGCTG       0.804
20    GAGCGTAG        0.34

---

- Target Under Test: DNMT3A catalytic domain (mouse) (UniProt O88508)
- Assay Info: relative CpG methylation activity (normalised to average over all NNNCGNNN flanks) (relative (1 = mean)); higher = more methylation of the central CpG
- Test Context: system: in vitro, murine catalytic domain; CpG state: hemimethylated substrate pool; residues: 608-908
Over roughly 4,100 sequences, “relative CpG methylation activity (normalised to average over all NNNCGNNN flanks)” has its median near 0.87; the highest 2% begin near 2.4. This excerpt belongs to a sample that is enriched for the highest values.
Records here are stratified by relative CpG methylation activity; strata: lower level (below 1), middle level (1 to below 2), upper level (2 or more)

> print(dat)
    seq.string           cat
 1    CTACGAGT  middle level
 2    TTACGGCC   upper level
 3    GTGCGCTA  middle level
 4    CCTCGCAA  middle level
 5    CCACGCTG  middle level
 6    ACACGCTC   upper level
 7    ACACGCTA  middle level
 8    CTACGAGC   upper level
 9    GCACGTCA  middle level
10    CCTCGGAG   lower level
11    CTACGAGA  middle level
12    AGACGTAT   lower level
13    CTTCGCAA  middle level
14    GTGCGCTT   upper level
15    ACCCGACG  middle level
16    ACGCGAGT   lower level
17    GATCGTTT   lower level
18    CTCCGATC   upper level
19    CTTCGGGC  middle level
20    CCGCGGGT  middle level
21    ACACGCTG  middle level
22    AGGCGCAG   lower level
23    ACTCGATG   lower level

---

- Target Under Test: DNMT3A catalytic domain (mouse) (UniProt O88508)
- Assay Info: relative CpG methylation activity (normalised to average over all NNNCGNNN flanks) (relative (1 = mean)); higher = more methylation of the central CpG
- Test Context: system: in vitro, murine catalytic domain; CpG state: hemimethylated substrate pool; residues: 608-908
Over roughly 4,100 sequences, “relative CpG methylation activity (normalised to average over all NNNCGNNN flanks)” has its median near 0.87; the highest 2% begin near 2.4. This is one part of a sample in which the highest values are shown more often than they occur.
Entries and their measured relative CpG methylation activity follow.
Outcome Measure: relative CpG methylation activity

> print(dat)
    seq.string  data.value
 1    TTCCGCAT        1.78
 2    TGCCGCCG        1.03
 3    CTACGCCG         2.5
 4    TACCGACC        0.79
 5    GCCCGGGT       0.974
 6    GCTCGCCT        2.09
 7    CTCCGCCT        2.45
 8    ACCCGCCC        2.24
 9    CACCGGAA       0.755
10    AGACGGTC        1.15
11    CGCCGCCT        1.48
12    CCACGCCA        1.91
13    GGCCGCCC        1.79
14    GCACGGGA        1.04
15    CGCCGCCC        1.77
16    ATACGTCT        2.22
17    GTCCGCCG        2.46
18    CCTCGCCA        1.67
19    CTCCGCCA        2.37
20    TTCCGCGC        2.03
21    GTACGCCA        2.14

---

- Target Under Test: DNMT3A catalytic domain (mouse) (UniProt O88508)
- Assay Info: relative CpG methylation activity (normalised to average over all NNNCGNNN flanks) (relative (1 = mean)); higher = more methylation of the central CpG
- Test Context: system: in vitro, murine catalytic domain; CpG state: hemimethylated substrate pool; residues: 608-908
Whole data set: some 4,100 sequences, median “relative CpG methylation activity (normalised to average over all NNNCGNNN flanks)” near 0.87, cut for the highest 2% near 2.4. The list comes from a sample in which the highest values are over-represented; it also holds close analogues and randomly drawn sequences.
Class assignment keyed on relative CpG methylation activity, ranges b0 = under 0.8, b1 = from 0.8 up to 2, b2 = 2 and over

> print(dat)
    seq.string  cat
 1    GTACGTCT   b2
 2    TACCGTTT   b0
 3    ATACGAGT   b1
 4    CTACGCTG   b1
 5    CTCCGTCA   b1
 6    CTACGCTT   b2
 7    GTCCGTCA   b2
 8    TCCCGTAT   b0
 9    CCACGTCA   b1
10    CTCCGTCG   b1
11    GTCCGTCT   b2
12    TGTCGGAA   b0
13    CTACGCTC   b2
14    CAACGCTA   b1

---

- Target Under Test: DNMT3A catalytic domain (mouse) (UniProt O88508)
- Assay Info: relative CpG methylation activity (normalised to average over all NNNCGNNN flanks) (relative (1 = mean)); higher = more methylation of the central CpG
- Test Context: system: in vitro, murine catalytic domain; CpG state: hemimethylated substrate pool; residues: 608-908
Over roughly 4,100 sequences, “relative CpG methylation activity (normalised to average over all NNNCGNNN flanks)” has its median near 0.87; the highest 2% begin near 2.4. The sample as a whole holds a higher share of the highest values than the screen did.
Outcome Measure: relative CpG methylation activity

> print(dat)
   seq.string                    outcome.measure  data.value
1    TGGCGGCC  relative CpG methylation activity           1
2    GTGCGCTC  relative CpG methylation activity        2.03
3    GTACGACC  relative CpG methylation activity        2.03
4    GCACGCTC  relative CpG methylation activity        1.98
